FYI, the data here is from the supplement of paper PMC10307832.

Known relative viability of a selection of compounds
Test system: LK-2
method notes: relative viability (nuclei count vs DMSO), 5 days (fraction); higher = more cells survive
conditions: first compound 8 µM

compound: CCCCCCCCCCCC1=C(O)C(=O)C=C(O)C1=O [Embelin] + Cc1nc(NC(=O)N2CCC[C@H]2C(N)=O)sc1-c1ccnc(C(C)(C)C(F)(F)F)c1 [Alpelisib] (partner 2 µM)
relative viability: 0.99

compound: CCCCCCCCCCCC1=C(O)C(=O)C=C(O)C1=O [Embelin] + CCNC(=O)c1noc(-c2cc(C(C)C)c(O)cc2O)c1-c1ccc(CN2CCOCC2)cc1 [Luminespib] (partner 0.01 µM)
relative viability: 0.198

compound: CCCCCCCCCCCC1=C(O)C(=O)C=C(O)C1=O [Embelin] + C[C@@H](Oc1cc(-c2cnn(C3CCNCC3)c2)cnc1N)c1c(Cl)ccc(F)c1Cl [Crizotinib] (partner 1 µM)
relative viability: 0.208

compound: CCCCCCCCCCCC1=C(O)C(=O)C=C(O)C1=O [Embelin] + CC(=O)Nc1cccc(-n2c(=O)n(C3CC3)c(=O)c3c(Nc4ccc(I)cc4F)n(C)c(=O)c(C)c32)c1 [Trametinib] (partner 0.02 µM)
relative viability: 0.954

compound: CCCCCCCCCCCC1=C(O)C(=O)C=C(O)C1=O [Embelin] + O=C(c1cc(Cc2n[nH]c(=O)c3ccccc23)ccc1F)N1CCN(C(=O)C2CC2)CC1 [Olaparib] (partner 8 µM)
relative viability: 0.69
